Experiment: DUSP6 inhibitors restoring Erk phosphorylation by chemical complementation, primary imaging in DUSP6-transfected HeLa (AID 609)
Settings: HeLa MKP-3 transfected, phospho-Erk imaging KS statistic; measured here: nuclear c-Myc green intensity z-score; at 10 µM; cells stimulated with TPA for 15 min
z-score values, listed per item
Quick one: just the number, no unit, thanks!

Some solved entries appear below for comparison.
Input line: Note down z-score recorded for COc1ccc(C2/C(=C(/O)c3ccccc3)C(=O)C(=O)N2c2ncccn2)cc1OC (centres undefined)
Output line: 1.14

Input line: Give me measured z-score, please, for this compound: CCOC(=O)C1CCCN(c2nc3ccccc3nc2C(C#N)C(=O)OCCOC)C1 (centres undefined)
Output line: 2.29

***
Input line: Read off the recorded z-score for O=C(Oc1ccccc1N1C(=O)CCC1=O)c1ccco1
Output line: -0.0545

Input line: Return reported z-score. Input compound: CC1(C)CC(NC(=O)C23CCC(C)(/C(=N/O)C2)C3(C)C)CC(C)(C)N1 (centres undefined)
Output line: 0.0129

Input line: Give the reported value of z-score for this record: N#CC(C(=O)Nc1ccc(Cl)c(Cl)c1)=C1Nc2ccccc2N1
Output line: 1.14

Input line: Identify the reported z-score for the following entry. Cc1onc(-c2ccccc2)c1C(=O)N[C@@H]1C(=O)N2[C@@H]1SC(C)(C)[C@@H]2C(=O)O
Output line: -0.454

Input line: Query z-score for CCSc1nc(N)c(C#N)c(-c2ccccc2Cl)c1C#N
Output line: 3.1

Input line: Please list z-score recorded for the compound COc1ccc(OC)c(C2/C(=C(/O)c3ccc(C)cc3)C(=O)C(=O)N2Cc2ccco2)c1 (centres undefined)
Output line: 0.438

Input line: Provide only the value of recorded z-score for CC(=O)[C@@]1(O)CC[C@H]2[C@@H]3C[C@H](C)C4=CC(=O)CC[C@]4(C)[C@H]3CC[C@@]21C
Output line: -0.494

Input line: Give the measured z-score for CCN1CCc2c(C#N)c(N3CCOCC3)nc(NCCO)c2C1
Output line: -1.68

Input line: Specify measured z-score for CSC1=Nc2sc3c(c2C2=NCCN12)CC(C)(C)OC3 .
Output line: 0.758

Input line: For CCCCn1c(-c2ccc(Cl)cc2)nc2c(=O)n(C)c(=O)[nH]c21 , write its z-score.
Output line: -0.817

src = PubChem BioAssay
